# System: HS 578T breast
# assay.info: NCI-60 one-dose screen, 48 h
# cond: 10 µM unless noted
# Procedure: Growth inhibition of the HS 578T human tumor cell line is measured as a screen for anti-cancer activity. Cells are grown in 96 well plates and exposed to the test compound for 48 hours. Compounds are tested at a single concentration, which is 10^-5 M for most compounds. The reported endpoint is percent growth (GI% or GIPRCNT), where numbers from 0 - 100% represent growth inhibition, and numbers from -100% - 0 represent cell death. For example, a value of 40 represents 60% growth inhibition. […]
This is part of a sample that, as a whole, favours compounds with a hit. Of some 83,000 tested, about 20% had one in any assay. Calls of active or inactive are those of the source. The calls were made as follows: active = growth percent below 10; inactive = the rest.
Possible outcomes: active, inactive

>>> assigned_label("O=C1NC(=O)C(=Cc2cccn2CCCCCn2c3ccccc3c(=O)c3ccccc32)C(=O)N1")
"inactive"
>>> assigned_label("[Cl][Hg][n]1c(-c2ccco2)nc2ccccc21")
"inactive"
>>> assigned_label("COc1ccc(C2=CC(c3ccc(OC)c(OC)c3)c3c(c4ccccc4oc3=O)O2)cc1OC (stereo not given)")
"active"
>>> assigned_label("Cn1cc(C=O)c2nccnc21")
"inactive"
>>> assigned_label("COC(=O)CCC1=C(C)c2cc3[n-]c(cc4nc(cc5[n-]c(cc1n2)c(CCC(=O)OC)c5C)C=C4C)cc3C.[Cd+2]")
"inactive"
>>> assigned_label("N/C(=N\\N=C\\c1ccc(-c2ccccc2)cc1)N[N+](=O)[O-]")
"inactive"
>>> assigned_label("COC1=CC(=O)O[C@@H](/C=C/c2ccc3c(c2)OCO3)C1")
"inactive"
>>> assigned_label("COc1cc2ncnc(Nc3ccc(F)c(Cl)c3)c2cc1OCC(=O)N1CCN(C)CC1")
"inactive"
>>> assigned_label("Nc1ccc2c(c1)Cc1cc(Br)ccc1-2")
"inactive"
>>> assigned_label("C[C@]12CC[C@H]3[C@@H](C[C@@H]4SC(Nc5ccccc5)=N[C@@]45CC(O)CC[C@]35C)[C@@H]1CCC2O (stereo not given in full)")
"active"
